Target or system Bcl-2-like protein 1 (Homo sapiens); metric pIC50; compiled from varied reports.
Answers are plain numbers, as −log10 of the molar value.

1. CN(C)CC[C@H](CSc1ccccc1)Nc1ccc(S(=O)(=O)Nc2ccccc2)cc1[N+](=O)[O-] = 3.26
2. CN(C)CCCNc1ccc(S(=O)(=O)NC(=O)c2ccc(N3CCN(CC4=C(c5ccc(C(F)(F)F)cc5)CC(C)(C)CC4)CC3)cc2Oc2cnc3[nH]ccc3c2)cc1[N+](=O)[O-] = 7.54
3. CN(C)CC[C@H](CSc1ccccc1)Nc1ccc(S(=O)(=O)Nc2ccc(N3CCN(c4cccc(-c5c(C(=O)NS(C)(=O)=O)ncn5-c5ccc(Cl)cc5)c4)CC3)cc2)cc1[N+](=O)[O-] = 8.08
4. CC1(C)CCC(c2ccc(Cl)cc2)=C(CN2CCc3sc(C(=O)NS(=O)(=O)c4ccc(N[C@H](CCN5CCOCC5)CSc5ccccc5)c(S(=O)(=O)C(F)(F)F)c4)cc3C2)C1 = 7.58
5. CN(C)CC[C@H](CSc1ccccc1)Nc1ccc(S(=O)(=O)Nc2ccc(N3CCN(c4cccc(-c5ccnn5-c5ccc(Cl)cc5)c4)CC3)cc2)cc1[N+](=O)[O-] = 7.49
6. CCCCN(CCCC)C(=O)c1nn(-c2ccc(C(=O)NS(=O)(=O)c3ccc4ccc(OCCN5CCOCC5)cc4c3)cc2C(=O)N2CCc3ccccc3C2)c(C)c1Cl = 7.27
7. CCCCc1c(-c2ccc(C(=O)NS(=O)(=O)c3ccc4ccccc4c3)cc2C(=O)N2CCc3ccccc3C2)c(CO)nn1-c1ccc(CCO)cc1 = 8.22
8. CCCCN(CCCC)C(=O)c1nn(-c2ccc(C(=O)NS(=O)(=O)c3ccc4ccccc4c3)cc2C(=O)N2CCc3ccccc3C2C)c(C)c1Cl (configuration not stated) = 6.23

// batch mode: one pIC50 value per listed entry
1. CN(C)CC[C@H](CSc1ccccc1)Nc1ccc(S(=O)(=O)Nc2ccc(C#Cc3cccc(-c4c(-c5ccc(Cl)cc5)cn(CC[C@H](O)CO)c4C(=O)NCCCN4CCN(C)CC4)c3)cc2)cc1[N+](=O)[O-]
2. CC1(C)CCC(c2ccc(Cl)cc2)=C(CN2CCN(c3ccc(C(=O)NS(=O)(=O)c4ccc(OCC5(CN6CC(F)(F)C6)COC5)c(S(=O)(=O)C(F)(F)F)c4)cc3)CC2)C1
3. CN(C)CC[C@H](CSc1ccccc1)Nc1ccc(S(=O)(=O)Nc2ccc(N3CCN(c4cccc(-c5c(-c6ccc(Cl)cc6)cn(C)c5C(=O)O)c4)CC3)cc2)cc1[N+](=O)[O-]
4. CC1(C)CCC(CN2CCN(c3ccc(C(=O)NS(=O)(=O)c4ccc(NCC5CCOCC5)c([N+](=O)[O-])c4)c(Oc4cnc5[nH]ccc5c4)c3)CC2)=C(c2ccc(C(F)(F)F)cc2)C1

Result string:
7.90
6.98
8.44
6.10

* * *

Target or system Bcl-2-like protein 1 (Homo sapiens, UniProt Q07817); metric IC50; compiled from varied reports.
One number for each entry, in nM.

The cases that follow already have their IC50 on record.
1) CC1(C)CCC(CN2CCN(c3ccc(C(=O)NS(=O)(=O)c4ccc(OCC5CCOC5)c([N+](=O)[O-])c4)c(Oc4cnc5[nH]ccc5c4)c3)CC2)=C(c2ccc(C(F)(F)F)cc2)C1 (stereo not drawn) = 1700
2) CC1(C)CCC(c2ccc(Cl)cc2)=C(CN2CCN(c3ccc(C(=O)NS(=O)(=O)c4ccc(NC5(CN6CC(F)(F)C6)CC5)c(S(=O)(=O)C(F)(F)F)c4)cc3)CC2)C1 = 342

Attention now turns to another entry.
// IC50 lookup, molecule = N#CC1=C2C(=NC1=O)c1cccc3c(Sc4ccc(N)cc4)ccc2c13 , result: 291

* * *

Target or system UniProt Q07817; metric IC50; compiled from varied reports.
Mark 1.0 for IC50 under 30 nM, 0.0 if at or over.

// known answers, use as guide
1. CCCCN(CCCC)C(=O)c1nn(-c2ccc(C(=O)NS(=O)(=O)c3ccc4cccc(S(=O)(=O)CC)c4c3)cc2C(=O)N2CCc3ccccc3C2)c(C)c1Cl = 0.0
2. CCCCOc1ccc(-n2nc(CO)c(-c3ccc(C(=O)NS(=O)(=O)c4ccc5ccccc5c4)cc3C(=O)N3CCc4ccccc4C3)c2CCCC)cc1 = 1.0
3. CCCCc1c(-c2ccc(C(=O)NS(=O)(=O)c3ccc4cccc(Cl)c4c3)cc2C(=O)N2CCc3ccccc3C2)c(CO)nn1-c1ccc(Oc2cccc(Cl)c2)cc1 = 1.0

Query string: Please determine if CCCCN(CCCC)C(=O)c1nn(-c2ccc(C(=O)NS(=O)(=O)c3ccc4c(c3)CCN4C(=O)c3ccc(Cl)c(Cl)c3)cc2C(=O)N2CCc3ccccc3C2)c(C)c1Cl is below 30 nM in terms of IC50.
Result string: 0.0

Query string: Please determine if CCCCCCNC1=C2C(=NC1=O)c1cccc3c(Oc4ccc(C(C)C)cc4)ccc2c13 is below 30 nM in terms of IC50.
Result string: 0.0

Query string: Please determine if O=C(c1ccc(CN(Cc2ccc(F)cc2)S(=O)(=O)c2cc(Cl)cc(Cl)c2O)cc1)N(Cc1ccc(F)cc1)Cc1cc(Cl)cc(Cl)c1 is below 30 nM in terms of IC50.
Result string: 0.0

Query string: Please determine if CCCCc1c(-c2ccc(C(=O)NS(=O)(=O)c3ccc4ccccc4c3)cc2C(=O)N2CCc3ccccc3C2)c(CO)nn1-c1ccccc1 is below 30 nM in terms of IC50.
Result string: 1.0

Query string: Please determine if O=C(NS(=O)(=O)c1ccc(N[C@H](CCN2CCOCC2)CSc2ccccc2)c(S(=O)(=O)C(F)(F)F)c1)c1ccc(N2CCC([S@+]([O-])c3ccccc3-c3ccc(Cl)cc3)CC2)cc1 is below 30 nM in terms of IC50.
Result string: 0.0

* * *

Target or system Bcl-2-like protein 1 (Homo sapiens, UniProt Q07817); metric pIC50; compiled from varied reports.
Give bare numbers, as −log10 of the molar value.

The cases that follow already have their pIC50 on record.
1. CN(C)CC[C@H](CSc1ccccc1)Nc1ccc(S(=O)(=O)Nc2ccc(N3CCN(c4cccc(-c5cn(C)nc5-c5ccc(Cl)cc5)c4)CC3)cc2)cc1[N+](=O)[O-] = 7.59
2. Cc1c(C(=O)O)c(-c2cccc(N3CCN(c4ccc(NS(=O)(=O)c5ccc(N[C@H](CCN(C)C)CSc6ccccc6)c([N+](=O)[O-])c5)cc4)CC3)c2)c(-c2ccc(Cl)cc2)n1C(C)C = 8.32

Attention now turns to another entry.
// pIC50 lookup, compound = CCCCc1c(-c2ccc(C(=O)NS(=O)(=O)c3ccc4ccccc4c3)cc2C(=O)N2CCc3ccccc3C2)c(C(=O)OCC)nn1-c1ccc(OC)cc1 , result: 7.32

* * *

Target or system Bcl-2-like protein 1 (Homo sapiens, UniProt Q07817); metric log10(IC50); compiled from varied reports.
log10 IC50, nM

1. CCCCN(CCCC)C(=O)c1cn(CCCN(C)C)c(-c2ccc(C(=O)NS(=O)(=O)c3ccc4ccccc4c3)cc2C(=O)N2CCc3ccccc3C2)n1 = 1.48

// batch mode: one log10(IC50) value per listed entry
1. Cc1c(C(=O)O)c(-c2cccc(N3CCN(c4ccc(NS(=O)(=O)c5ccc(N[C@H](CCN(C)C)CSc6ccccc6)c([N+](=O)[O-])c5)cc4)CC3)c2)c(-c2ccc(Cl)cc2)n1C1CC1
2. CN(C)CC[C@H](CSc1ccccc1)Nc1ccc(S(=O)(=O)Nc2ccc(N3CCN(c4cccc(-c5cnn(C)c5-c5ccc(Cl)cc5)c4)CC3)cc2)cc1[N+](=O)[O-]
3. Cc1c(C(N)=O)c(-c2cccc(N3CCN(c4ccc(NS(=O)(=O)c5ccc(N[C@H](CCN(C)C)CSc6ccccc6)c([N+](=O)[O-])c5)cc4)CC3)c2)c(-c2ccc(Cl)cc2)n1C
4. CC1(C)CCC(c2ccc(Cl)cc2)=C(CN2CCN(c3ccc(C(=O)NS(=O)(=O)c4ccc(N[C@@H](CC5CC5)CN5CCOCC5)c(S(=O)(=O)C(F)(F)F)c4)cc3)CC2)C1
5. CCCCCCNC1=C2C(=NC1=O)c1cccc3c(Sc4ccc(OC)cc4)ccc2c13

Result string:
0.89
1.18
1.15
1.53
2.26

// batch mode: one log10(IC50) value per listed entry
1. CC1(C)CCC(c2ccc(Cl)cc2)=C(CN2CCc3nc(C(=O)NS(=O)(=O)c4ccc(N[C@H](CCN5CCOCC5)CSc5ccccc5)c(S(=O)(=O)C(F)(F)F)c4)sc3C2)C1
2. Cc1c(C#N)c(-c2cccc(N3CCN(c4ccc(NS(=O)(=O)c5ccc(N[C@H](CCN(C)C)CSc6ccccc6)c([N+](=O)[O-])c5)cc4)CC3)c2)c(-c2ccc(Cl)cc2)n1C
3. CCCCc1c(-c2ccc(C(=O)NS(=O)(=O)c3ccc4ccccc4c3)cc2C(=O)N2CCc3ccccc3C2)c(CO)nn1-c1ccc(Oc2ccccc2)cc1
4. CCCN(CCC)c1ncc(Cl)c(-c2ccc(C(=O)NS(=O)(=O)c3ccc4cccc(Cl)c4c3)cc2C(=O)N2Cc3ccccc3C[C@H]2CO)n1
5. O=C(NS(=O)(=O)c1ccc(NCCSc2ccccc2)c([N+](=O)[O-])c1)c1ccc(-c2ccc(F)cc2)cc1

Result string:
1: 1.12; 2: 0.65; 3: 1.54; 4: 0.95; 5: 3.18

// batch mode: one log10(IC50) value per listed entry
1. CN(C)CC[C@H](CSc1ccccc1)Nc1ccc(S(=O)(=O)NC(=O)c2ccc(C#Cc3cccc(-c4c(-c5ccc(Cl)cc5)cn(CC[C@H](O)CO)c4C(=O)NCCCN4CCN(C)CC4)c3)cc2)cc1[N+](=O)[O-]
2. Cc1c(C(=O)N[C@H]2C[C@@](C)(O)C2)c(-c2cccc(N3CCN(c4ccc(NS(=O)(=O)c5ccc(N[C@H](CCN(C)C)CSc6ccccc6)c([N+](=O)[O-])c5)cc4)CC3)c2)c(-c2ccc(Cl)cc2)n1C
3. CC1(C)CCC(c2ccc(Cl)cc2)=C(CN2CCc3ccc(C(=O)NS(=O)(=O)c4ccc(N[C@H](CCN5CCOCC5)CSc5ccccc5)c(S(=O)(=O)C(F)(F)F)c4)cc3CC2)C1
4. CC1(C)CCC(CN2CCN(c3ccc(C(=O)NS(=O)(=O)c4ccc(OCC5CCOCC5)c([N+](=O)[O-])c4)c(Oc4cnc5[nH]ccc5c4)c3)CC2)=C(c2ccc(C(F)(F)F)cc2)C1

Result string:
1. 0.76
2. 1.18
3. 1.41
4. 2.94
